Cited source: PubChem BioAssay (NCI)

Below is a list of entries, each paired with its recorded GI50 value.
test system: A549 NSCLC; assay: NCI tumour cell line growth inhibition, 48 h

Noted for Cc1ccc(N(CC(=O)Nc2ccc(S(=O)(=O)NC3CCN(C)CC3)cc2)S(=O)(=O)c2ccc(Cl)cc2)cc1 : its GI50 reads 5 µM

Noted for C1C[OH+]CCNCC[OH+]CC[OH+]CCN1.O.[Cl-].[Pt+4] : its GI50 reads > 100 µM

###

Below is a list of entries, each paired with its recorded TGI value.
system: SK-MEL-5 melanoma; assay: NCI tumour cell line growth inhibition, 48 h

Previously resolved entries follow.
| COMPOUND | SYSTEM_UNDER_TEST | TGI |
| --- | --- | --- |
| O=C(O)[C@@H](NS(=O)(=O)c1ccc(F)cc1)c1ccccc1 | SK-MEL-5 melanoma | > 100 µM |
| COc1cc2c(Oc3ccc4[nH]c(C)cc4c3F)ncnc2cc1OCCCN1CCCC1 | SK-MEL-5 melanoma | 3.17 µM |
| COc1cc(Nc2ncc3c(C)nc(-c4cccc(C(F)(F)F)c4)n3n2)cc(OC)c1OC | SK-MEL-5 melanoma | 6.51 µM |
| CN1C(=O)C(/C=N/NC(=O)c2cccnc2)C(N)N(C)C1=O (stereo not given) | SK-MEL-5 melanoma | > 100 µM |
| O=c1[nH]cnc2c1ncn2C1CCC(CO)O1 (stereo not given) | SK-MEL-5 melanoma | > 1000 µM |
| CCCOc1ccc2sc(NC(=O)c3cc([N+](=O)[O-])cc([N+](=O)[O-])c3)nc2c1 | SK-MEL-5 melanoma | 48.8 µM |
| CC(C)(C)OC(=O)C1=C(O)C(C(=O)OC(C)(C)C)C23CCCCC12C(C(=O)OC(C)(C)C)C(O)=C3C(=O)OC(C)(C)C (stereo not given) | SK-MEL-5 melanoma | > 100 µM |
| NC(CCCCO)C(=O)O (stereo not given) | SK-MEL-5 melanoma | > 100 µM |

Noted for O=C1C(=O)/C(=C/c2ccccc2)CCCCCC/C1=C/c1ccccc1 : its TGI reads 12.1 µM

Noted for CCOC(=O)c1c(Sc2ccc([N+](=O)[O-])cc2[N+](=O)[O-])nc2c3ccccc3ccn12 : its TGI reads > 100 µM
